- System: OVCAR-8 ovarian
- assay_notes: NCI tumour cell line growth inhibition, 48 h; in the data active = GI50 below about 0.43 µM; inactive = the rest
Give your call using only these classes: active, inactive

Examples with answers:
molecule	group
Cc1cc(I)cc(CN(C)CCCCN2CCCC2)c1O	inactive
C/C(=N\n1c(N)c(C#N)c(-c2ccc(Cl)cc2)c(C#N)c1=O)c1cccnc1	inactive
COc1cc([N+](=O)[O-])c2ncccc2c1O	inactive
CC(Cl)CC(=O)Nc1ccc2c(c1)oc(=O)c1cc(NC(=O)CC(C)Cl)ccc12 (centres undefined)	inactive
NC(=NC1C2CC3CC(C2)CC1C3)Nc1ccc(I)cc1 (centres undefined)	inactive
COc1cc(SC)ccc1C(=O)N1CCCC(C)C1 (centres undefined)	inactive
O.O=[Se](=O)(O)O.[NH-]C1CCCCC1[NH-].[Pt+2] (centres undefined)	inactive
C[C@@H]1CC[C@H]2C(CN3CCN(CC4=C(C(F)(F)F)O[C@@H]5O[C@@]6(C)CC[C@H]7[C@H](C)CC[C@@H]4[C@@]57OO6)CC3)=C(C(F)(F)F)O[C@@H]3O[C@@]4(C)CC[C@@H]1[C@]32OO4	inactive
CCn1cc(C2NC(=O)c3cc(F)ccc3N2)c2cccc(Cl)c21 (centres undefined)	active
Cn1cc(/C=C2\C(=O)Nc3cccnc32)c2ccccc21	inactive

Per the records of this test, what outcome belongs to `O=C(Nc1ccc(-c2nc3ccc(NC(=O)c4ccc(Cl)cc4)cc3[nH]2)cc1)c1ccc(Cl)cc1` ?
inactive

Query: recorded result category for CC(=O)OCC1OC(O[C@@H]2C[C@H]3C(C)(C)[C@H](OC(C)=O)CC[C@]3(C)[C@H]3CC[C@@H]4[C@]5(CC[C@@]4(C)[C@@]32C)O[C@@H]([C@H](O)C(C)(C)O)C[C@@H]5C)C(O)C(O)C1O (some centres undefined) in this test
inactive

Each molecule tested received a call. Report the one for `C[C@H]1CC(=O)[C@@]2(O)C#C/C=C\C#C[C@@H]3Nc4c(cc(O)c5c4C(=O)c4ccccc4C5=O)[C@]24O[C@]314` .
active

I would be grateful if you could indicate the recorded call for CCCCCCCCCC[C@@H](O)[C@H]1CC[C@@H]([C@H]2CC[C@H]([C@H](O)CCCCCCCCCC[C@@H]3CC(CC(C)=O)C(=O)O3)O2)O1 (some centres undefined) .
inactive
